Recorded pIC50 values (PCSK9 (Homo sapiens, UniProt Q8NBP7)) are given below.
pIC50: −log10 of the molar value.
recorded-endpoint: pIC50

Examples from the recorded data:
{"compound": "C[C@]1(CC(=O)Nc2nccs2)NCCc2cc(OCC3CCCCO3)c(Oc3ccc(C(=O)O)c(F)c3)cc21 (single isomer, unassigned) [Example 70]", "recorded-endpoint": "pIC50", "reported-value": 6.26}
{"compound": "C[C@]1(CC(=O)Nc2nccs2)NCCc2cc(OCC3CCCCO3)c(Oc3ccc(-c4ccc(C(=O)O)cc4)c(F)c3)cc21 (stereo partly shown)", "recorded-endpoint": "pIC50", "reported-value": 6.64}

[P] C[C@]1(CC(=O)Nc2nccs2)NCCc2cc(OCC3CCCCO3)c(Oc3ccc(C(=O)O)c(F)c3)cc21 (stereo partly shown) [Example 66]
[Q] C[C@]1(CC(=O)Nc2nccs2)NCCc2cc(OCC3CCCO3)c(Oc3ccc(-c4c[nH]c5c(C(=O)O)cccc45)c(F)c3)cc21 (stereo partly shown)
[R] COc1cccc(NC(=O)C[C@@]2(C)NCCc3cc(OC)c(Oc4cccc(F)c4)cc32)c1
// query Order the records, beginning with the lowest pIC50 and ending with the highest. Response format: the labels, sorted as the prompt asks.
// result R, P, Q
(R: 6.12, P: 6.40, Q: 6.72)

[A] COc1cc2c(cc1Oc1ccc(-c3ccc(CCC(=O)O)cc3)c(F)c1)[C@@](C)(CC(=O)Nc1nccs1)NCC2
[B] C[C@]1(CC(=O)Nc2nccs2)NCCc2cc(OCC(=O)O)c(Oc3ccc(C(=O)O)c(F)c3)cc21
// query Between A and B , whose recorded pIC50 is greater? Give the label of your selection.
// result B

----------
Target: PCSK9 (Homo sapiens, UniProt Q8NBP7)
Sequence (Q8NBP7 153-692): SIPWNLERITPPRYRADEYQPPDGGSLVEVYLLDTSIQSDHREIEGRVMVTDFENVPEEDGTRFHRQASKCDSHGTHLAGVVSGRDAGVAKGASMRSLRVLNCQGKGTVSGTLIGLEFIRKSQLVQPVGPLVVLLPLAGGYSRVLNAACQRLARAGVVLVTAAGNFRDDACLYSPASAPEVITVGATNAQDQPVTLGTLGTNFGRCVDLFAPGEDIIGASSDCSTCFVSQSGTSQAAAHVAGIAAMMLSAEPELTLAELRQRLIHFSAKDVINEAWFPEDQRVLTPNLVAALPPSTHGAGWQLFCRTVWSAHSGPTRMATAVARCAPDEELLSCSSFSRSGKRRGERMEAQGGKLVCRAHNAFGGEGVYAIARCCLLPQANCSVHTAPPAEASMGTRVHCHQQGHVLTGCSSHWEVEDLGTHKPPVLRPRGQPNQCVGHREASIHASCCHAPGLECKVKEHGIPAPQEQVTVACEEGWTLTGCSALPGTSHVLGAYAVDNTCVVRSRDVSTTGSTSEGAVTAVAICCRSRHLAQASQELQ
Assay: Differential scanning calorimetry (DSC) assay, direct binding / thermal stabilization of PCSK9
Conditions: Tm(with compound)−Tm(no compound); 2 μM PCSK9, 300 μM test compound
Procedure: Differential scanning calorimetry (DSC) was used as a biophysical method to confirm direct binding to PCSK9. A solution containing 2 μM PCSK9 with or without 300 μM test compound in 25 mM HEPES (pH 7.5)/150 mM NaCl/1 mM CaCl2/3.75% DMSO was transferred to the sample cell of the DSC instrument, while buffer alone was placed in the reference cell. […] Each thermogram was analyzed to provide the melting temperature (Tm) of the protein. […]
recorded-endpoint: ΔTm at 300 µM (°C)

{"molecule": "COC(=O)c1ccc(-c2ccc(Oc3cc4c(cc3OCC3CCCCO3)CCN[C@]4(C)CC(=O)Nc3cccc(OC)c3)cc2F)cc1 (stereo partly drawn)", "reported-value": 5.98}
{"molecule": "COc1cc2c(cc1Oc1ccc(-c3c[nH]c(C(=O)O)c3)c(F)c1)[C@@](C)(CC(=O)Nc1nccs1)NCC2", "reported-value": 5.89}
{"molecule": "C[C@]1(CC(=O)Nc2nccs2)NCCc2cc(OCCn3cc(CN4CCNC4=O)nn3)c(Oc3ccc(C(=O)O)c(F)c3)cc21", "reported-value": 5.97}
{"molecule": "COC(=O)c1cc(-c2cc3c(cc2OC)CCN[C@]3(C)CC(=O)Nc2nccs2)ccc1F", "reported-value": 6.02}
{"molecule": "Cc1ccc(C2C(C(=O)O)c3ccccc3C(=O)N2c2cccc(-c3cn(CCOc4cc5c(cc4Oc4ccc(C(=O)O)c(F)c4)[C@@](C)(CC(=O)Nc4nccs4)NCC5)nn3)c2)cc1 (stereo partly drawn)", "reported-value": 6.87}
{"molecule": "C[C@]1(CC(=O)Nc2nccs2)NCCc2cc(OCc3ccccn3)c(Oc3cccc(F)c3)cc21", "reported-value": 5.2}

----------
Biological target: PCSK9 (Homo sapiens, UniProt Q8NBP7)
Assay: Differential scanning calorimetry (DSC) assay, direct binding / thermal stabilization of PCSK9
Settings: Tm(with compound)−Tm(no compound); 2 μM PCSK9, 300 μM test compound
recorded-endpoint: DSC ΔTm (°C)

{"compound": "C[C@]1(CC(=O)Nc2nccs2)NCCc2cc(OCC3CCCCO3)c(Oc3cccc(F)c3)cc21 (single isomer, unassigned) [Example 81]", "measurement-units": "°C", "DSC ΔTm": 6.585}
{"compound": "C[C@]1(CC(=O)Nc2nccs2)NCCc2cc(OCC3CCCCO3)c(Oc3ccc(C(=O)O)c(F)c3)cc21 (stereo partly drawn) [Example 66]", "measurement-units": "°C", "DSC ΔTm": 9.14}
{"compound": "CC1=CC(C)=[N+]2C1=Cc1ccc(CCC(=O)NCCOCCOc3cc4c(cc3Oc3ccc(C(=O)O)c(F)c3)[C@@](C)(CC(=O)Nc3nccs3)NCC4)n1[B-]2(F)F [Example 57]", "measurement-units": "°C", "DSC ΔTm": 6.15}

----------
Target: HEK293 cells stably overexpressing PCSK9 (Homo sapiens)
Construct: expressed in transfected cells
Sequence (Q8NBP7 31-152, one chain of several): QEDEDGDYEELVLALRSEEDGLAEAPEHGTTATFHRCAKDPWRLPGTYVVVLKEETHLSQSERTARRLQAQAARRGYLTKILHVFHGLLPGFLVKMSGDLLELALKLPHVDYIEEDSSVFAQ
Assay: Protein degradation assay (Western Blot/Sally Sue assay)
Type: cell-based
Details: mature PCSK9 protein level lowered by 50%; 24 hrs compound treatment, serum free DMEM; read-out: PCSK9 DC50 (Mature)
recorded-endpoint: DC50 (µM)

Examples from the recorded data:
{"smiles-data": "CC(C)(C)OC(=O)/N=C(/NCCC[C@@H](NC(=O)OC(C)(C)C)C(=O)NCCOCCOc1cc2c(cc1Oc1ccc(-c3ccc(C(=O)O)cc3)c(F)c1)[C@@](C)(CC(=O)Nc1nccs1)NCC2)NC(=O)OC(C)(C)C", "measurement-target": "HEK293 cells stably overexpressing PCSK9 (Homo sapiens)", "measurement-units": "µM", "reported-value": 3.42}
{"smiles-data": "CC(C)Cc1ccc([C@H](C)C(=O)NCCOCCOCCOc2cc3c(cc2Oc2ccc(-c4ccc(C(=O)O)cc4)c(F)c2)[C@@](C)(CC(=O)Nc2nccs2)NCC3)cc1", "measurement-target": "HEK293 cells stably overexpressing PCSK9 (Homo sapiens)", "measurement-units": "µM", "reported-value": 4.24}
{"smiles-data": "C[C@]1(CC(=O)Nc2nccs2)NCCc2cc(OCCOCCOCCNC(=O)CC34CC5CC(CC(C5)C3)C4)c(Oc3ccc(-c4ccc(C(=O)O)cc4)c(F)c3)cc21", "measurement-target": "HEK293 cells stably overexpressing PCSK9 (Homo sapiens)", "measurement-units": "µM", "reported-value": 8.52}
{"smiles-data": "CC(C)(C)OC(=O)/N=C(/NCCC[C@H](NC(=O)OC(C)(C)C)C(=O)NCCOCCOCCOCCOc1cc2c(cc1Oc1ccc(-c3ccc(C(=O)O)cc3)c(F)c1)[C@@](C)(CC(=O)Nc1nccs1)NCC2)NC(=O)OC(C)(C)C", "measurement-target": "HEK293 cells stably overexpressing PCSK9 (Homo sapiens)", "measurement-units": "µM", "reported-value": 9}

[a] C[C@]1(CC(=O)Nc2nccs2)NCCc2cc(OCCOCCNC(=O)CC34CC5CC(CC(C5)C3)C4)c(Oc3ccc(-c4ccc(C(=O)O)cc4)c(F)c3)cc21
[b] C[C@]1(CC(=O)Nc2nccs2)NCCc2cc(OCCOCCOCCOCCNC(=O)CC34CC5CC(CC(C5)C3)C4)c(Oc3ccc(-c4ccc(C(=O)O)cc4)c(F)c3)cc21
[c] CC(C)Cc1ccc([C@H](C)C(=O)NCCOCCOCCOCCOc2cc3c(cc2Oc2ccc(-c4ccc(C(=O)O)cc4)c(F)c2)[C@@](C)(CC(=O)Nc2nccs2)NCC3)cc1
// query Order the records, beginning with the lowest DC50 and ending with the highest. Response format: the labels, sorted as the prompt asks.
// result b, c, a

----------
Target: PCSK9 (Homo sapiens, UniProt Q8NBP7)
Assay: Differential scanning calorimetry (DSC) assay, direct binding / thermal stabilization of PCSK9
Conditions: Tm(with compound)−Tm(no compound); 2 μM PCSK9, 300 μM test compound
recorded-endpoint: ΔTm at 300 µM (°C)

{"compound": "C[C@]1(CC(=O)Nc2nccs2)NCCc2cc(OCc3ccccn3)c(Oc3ccc(-c4ccc(C(=O)O)cc4)c(F)c3)cc21 [Example 18]", "measurement-target": "PCSK9 (Homo sapiens, UniProt Q8NBP7)", "recorded-endpoint": "ΔTm at 300 µM", "reported-value": 7.62}
{"compound": "COc1cc2c(cc1Oc1ccc(-c3ccc(CC(=O)O)cc3)cc1)[C@@](C)(CC(=O)Nc1nccs1)NCC2 [Example 36]", "measurement-target": "PCSK9 (Homo sapiens, UniProt Q8NBP7)", "recorded-endpoint": "ΔTm at 300 µM", "reported-value": 5.56}
{"compound": "CC1(CC(=O)Nc2nccs2)NCCc2cc(OCC3CCCCO3)c(-c3ccc(F)c(C(=O)O)c3)cc21 (centres unmarked) [Example 110]", "measurement-target": "PCSK9 (Homo sapiens, UniProt Q8NBP7)", "recorded-endpoint": "ΔTm at 300 µM", "reported-value": 6.7}
{"compound": "C[C@]1(CC(=O)Nc2nccs2)NCCc2cc(OCc3ncccc3F)c(Oc3cccc(F)c3)cc21 [Example 84]", "measurement-target": "PCSK9 (Homo sapiens, UniProt Q8NBP7)", "recorded-endpoint": "ΔTm at 300 µM", "reported-value": 6.32}
{"compound": "COc1cc2c(cc1Oc1ccc(-c3ccc(C(=O)O)cc3F)nc1)[C@@](C)(CC(=O)Nc1nccs1)NCC2 [Example 33]", "measurement-target": "PCSK9 (Homo sapiens, UniProt Q8NBP7)", "recorded-endpoint": "ΔTm at 300 µM", "reported-value": 5.2}
{"compound": "C[C@]1(CC(=O)Nc2nccs2)NCCc2cc(OCCOCCOCCNC(=O)CCCC[C@@H]3SC[C@@H]4NC(=O)N[C@@H]43)c(Oc3ccc(C(=O)O)cc3)cc21 [Example 58]", "measurement-target": "PCSK9 (Homo sapiens, UniProt Q8NBP7)", "recorded-endpoint": "ΔTm at 300 µM", "reported-value": 5.88}
{"compound": "Cc1nnc(-c2cn(CCOc3cc4c(cc3Oc3ccc(C(=O)O)c(F)c3)[C@@](C)(CC(=O)Nc3nccs3)NCC4)nn2)o1 [Example 39]", "measurement-target": "PCSK9 (Homo sapiens, UniProt Q8NBP7)", "recorded-endpoint": "ΔTm at 300 µM", "reported-value": 5.98}
{"compound": "C[C@]1(CC(=O)Nc2nccs2)NCCc2cc(OCC3CCCO3)c(Oc3cccc(F)c3)cc21 (some centres unmarked) [Example 82]", "measurement-target": "PCSK9 (Homo sapiens, UniProt Q8NBP7)", "recorded-endpoint": "ΔTm at 300 µM", "reported-value": 7.47}
{"compound": "CC(C)(C)c1cc(NC(=O)c2ccc(Oc3cc4c(cc3OCC3CCCCO3)CCN[C@]4(C)CC(=O)Nc3nccs3)cc2F)[nH]n1 (some centres unmarked) [Example 76]", "measurement-target": "PCSK9 (Homo sapiens, UniProt Q8NBP7)", "recorded-endpoint": "ΔTm at 300 µM", "reported-value": 7.92}
{"compound": "C[C@]1(CC(=O)Nc2nccs2)NCCc2cc(OCC3CCCCO3)c(Oc3ccc(-c4ccc(C(=O)O)cc4)c(F)c3)cc21 (some centres unmarked) [Example 23]", "measurement-target": "PCSK9 (Homo sapiens, UniProt Q8NBP7)", "recorded-endpoint": "ΔTm at 300 µM", "reported-value": 8.71}
{"compound": "CC1(c2cn(CCOc3cc4c(cc3Oc3ccc(C(=O)O)c(F)c3)[C@@](C)(CC(=O)Nc3nccs3)NCC4)nn2)CCOC1 (some centres unmarked) [Example 38]", "measurement-target": "PCSK9 (Homo sapiens, UniProt Q8NBP7)", "recorded-endpoint": "ΔTm at 300 µM", "reported-value": 7}
{"compound": "COc1cc2c(cc1Oc1ccc(-c3ccc(/C=C/C(=O)O)cc3)c(F)c1)[C@@](C)(CC(=O)Nc1nccs1)NCC2 [Example 28]", "measurement-target": "PCSK9 (Homo sapiens, UniProt Q8NBP7)", "recorded-endpoint": "ΔTm at 300 µM", "reported-value": 6.91}
{"compound": "C[C@]1(CC(=O)Nc2nccs2)NCCc2cc(OCc3ccccn3)c(Oc3ccc(C(=O)O)c(F)c3)cc21 [Example 65]", "measurement-target": "PCSK9 (Homo sapiens, UniProt Q8NBP7)", "recorded-endpoint": "ΔTm at 300 µM", "reported-value": 7.31}
{"compound": "COc1cccc(NC(=O)C[C@@]2(C)NCCc3cc(OCC4CCCCO4)c(Oc4ccc(Br)c(F)c4)cc32)n1 (some centres unmarked) [Example 87]", "measurement-target": "PCSK9 (Homo sapiens, UniProt Q8NBP7)", "recorded-endpoint": "ΔTm at 300 µM", "reported-value": 6.57}

Cited source: patent US11008313B2
